target_or_system: GLP-1 Receptor (Homo sapiens)
protocol_details: GLP-1R agonist cAMP stimulation assay (HEK293/GLP1R/CRE-LUC cells, Cisbio cAMP dynamic 2 kit)
condition_info: HEK293/CRE-Luc cell line stably expressing the GLP-1 Receptor; 1000 cells/well; 30 min at 37° C.; 0.5 mM IBMX, 0.1% BSA; read-out: GLP1R cAMP Stimulation DR: EC50
pEC50: −log10 of the molar value.
readout_name: pEC50

Check out these entries, answers already filled in.
compound	reported_measurement
O=C(O)/C=C/c1cnc(CN2CCC(c3cccc4c3OC[C@@H](c3ccc(Cl)cc3)O4)CC2)n1Cc1cccnc1 [Compound 209a]	9.27
CC1(c2ccc(Cl)cc2F)Oc2cccc(C3CCN(Cc4ncc(/C=C/C(=O)O)n4Cc4cccnc4C(F)(F)F)CC3)c2O1 (stereo not shown) [Compound 146]	8.72

1 = CO[C@@H](C)Cn1c(/C=C/C(=O)O)cnc1CN1CCC(c2cccc3c2O[C@@](C)(c2ccc(Cl)cc2F)O3)CC1 [Compound 172a]
2 = C[C@H]1CN(c2cccc3c2OC(C)(c2ccc(Cl)cc2F)O3)CCN1Cc1ncc(/C=C/C(=O)O)n1C[C@@H]1CCO1 (stereo partly shown) [Compound 180]
Form: Entry with minimum pEC50 (choose one): 1 / 2 Refer to your chosen item by its label in the answer.
1
(1: 10.32, 2: 10.59)

====

target_or_system: GLP-1 Receptor (Homo sapiens, UniProt P43220)
Sequence (P43220 24-463, species assumed): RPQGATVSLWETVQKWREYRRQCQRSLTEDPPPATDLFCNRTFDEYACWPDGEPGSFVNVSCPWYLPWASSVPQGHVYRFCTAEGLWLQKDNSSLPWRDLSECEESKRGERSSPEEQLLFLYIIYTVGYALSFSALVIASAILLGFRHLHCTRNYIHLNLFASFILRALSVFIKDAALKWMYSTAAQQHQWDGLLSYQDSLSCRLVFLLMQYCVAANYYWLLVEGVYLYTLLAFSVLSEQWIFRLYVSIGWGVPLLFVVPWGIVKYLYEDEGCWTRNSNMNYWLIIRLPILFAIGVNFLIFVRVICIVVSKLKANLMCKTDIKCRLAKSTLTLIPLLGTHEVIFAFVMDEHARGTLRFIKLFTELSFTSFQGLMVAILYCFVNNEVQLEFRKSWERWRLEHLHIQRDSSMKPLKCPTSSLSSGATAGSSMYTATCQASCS
protocol_details: GLP-1R agonist cAMP stimulation assay (HEK293/GLP1R/CRE-LUC cells, Cisbio cAMP dynamic 2 kit)
condition_info: HEK293/CRE-Luc cell line stably expressing the GLP-1 Receptor; 1000 cells/well; 30 min at 37° C.; 0.5 mM IBMX, 0.1% BSA; read-out: GLP1R cAMP Stimulation DR: EC50
readout_name: EC50 (nM)

molecule	target_or_system	EC50, nM
Cc1ncoc1Cn1c(CCC(=O)O)cnc1CN1CCC(c2cccc3c2OC(C)(c2ccc(Cl)cc2F)O3)CC1 (stereo not shown)	GLP-1 Receptor (Homo sapiens, UniProt P43220)	0.21
Cc1ncccc1Cn1c(/C=C/C(=O)O)cnc1CN1CCC(c2cccc3c2OC(C)(c2ccc(Cl)cc2F)O3)CC1 (stereo not shown)	GLP-1 Receptor (Homo sapiens, UniProt P43220)	0.045
C/C(=C\c1cnc(CN2CCC(c3cccc(OCc4ccc(Cl)cc4F)n3)CC2)n1C)C(=O)O	GLP-1 Receptor (Homo sapiens, UniProt P43220)	5.5

a = C/C(=C\c1cnc(CN2CCC(c3cccc4c3OC[C@@H](c3ccc(Cl)cc3)O4)CC2)n1C[C@@H]1CCO1)C(=O)O [Compound 115a]
b = Cn1c(/C=C\C(=O)O)cnc1CN1CCC(c2cccc(OCc3ccc(Cl)cc3F)n2)CC1
c = C[C@]1(c2ccc(Cl)cc2F)Oc2cccc(C3CCN(Cc4ncc(/C=C/C(=O)O)n4CCOCC(F)(F)F)CC3)c2O1 [Compound 198a]
Arrange the 3 molecules by rising EC50, starting with the smallest. Give the order by naming the labels one after another as requested.
c, a, b
(c: 0.0095 nM, a: 3.2 nM, b: 86.4 nM)

====

target_or_system: GLP-1 Receptor (Homo sapiens, UniProt P43220)
protocol_details: GLP-1R agonist cAMP stimulation assay (HEK293/GLP1R/CRE-LUC cells, Cisbio cAMP dynamic 2 kit)
condition_info: HEK293/CRE-Luc cell line stably expressing the GLP-1 Receptor; 1000 cells/well; 30 min at 37° C.; 0.5 mM IBMX, 0.1% BSA; read-out: GLP1R cAMP Stimulation DR: EC50
readout_name: EC50 (nM)

compound	endpoint_unit	EC50
COCCn1c(/C=C/C(=O)O)nnc1CN1CCC(c2cccc(OCc3ccc(Cl)cc3F)n2)CC1	nM	0.47

I = CC1(c2ccc(Cl)cc2F)Oc2cccc(C3CCN(Cc4ncc(/C=C/C(=O)O)n4CCC4CC4)CC3)c2O1 (stereo not shown)
II = CCn1cncc1Cn1c(/C=C(\C)C(=O)O)cnc1CN1CCC(c2cccc3c2O[C@](C)(c2ccc(Cl)cc2F)O3)CC1 [Compound 138b]
Form: Entry with minimum EC50 (choose one): I / II Refer to your chosen item by its label in the answer.
I

====

target_or_system: GLP-1 Receptor (Homo sapiens, UniProt P43220)
protocol_details: GLP-1R agonist cAMP stimulation assay (HEK293/GLP1R/CRE-LUC cells, Cisbio cAMP dynamic 2 kit);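 also: compounds tested in half-log serial dilution, cAMP detected with cAMP-d2 and anti-cAMP cryptate antibody reagents after 1 h at room temperature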
condition_info: HEK293/CRE-Luc cell line stably expressing the GLP-1 Receptor; 1000 cells/well; 30 min at 37° C.; 0.5 mM IBMX, 0.1% BSA; read-out: GLP1R cAMP Stimulation DR: EC50
readout_name: EC50 (nM)

Check out these entries, answers already filled in.
molecule	readout_name	reported_measurement
COCCc1cc(-c2nnc(C(F)(F)F)[nH]2)cnc1CN1CCC(c2cccc3c2O[C@@](C)(c2ccc(C#N)cc2F)O3)CC1 [Compound 260]	EC50	2.3
Cc1cc(-c2nnn[nH]2)cnc1CN1CCC(c2cccc3c2OC(C)(c2ccc(Cl)cc2F)O3)CC1 (stereo not shown) [Compound 253]	EC50	4
CC1(c2ccc(Cl)cc2F)Oc2cccc(C3CCN(Cc4nc(/C=C/C(=O)O)cn4Cc4ccno4)CC3)c2O1 (stereo not shown) [Compound 182]	EC50	93

1 = CC1(c2ccc(Cl)cc2F)Oc2cccc(C3CCN(Cc4ncc(/C=C/C(=O)O)n4CCS(C)(=O)=O)CC3)c2O1 (stereo not shown) [Compound 161]
2 = Cc1ncoc1Cn1c(/C=C/C(=O)O)cnc1CN1CCC(c2cccc3c2OC(C)(c2ccc(Cl)cc2F)O3)CC1 (stereo not shown) [Compound 190]
3 = COCCn1c(C2CC2C(=O)O)cnc1CN1CCC(c2cccc(OCc3ccc(Cl)cc3F)n2)CC1 (stereo not shown) [Compound 113]
Please list these molecules in decreasing order of EC50. Give the order by naming the labels one after another as requested.
3, 1, 2

====

target_or_system: GLP-1 Receptor (Homo sapiens)
protocol_details: GLP-1R agonist cAMP stimulation assay (HEK293/GLP1R/CRE-LUC cells, Cisbio cAMP dynamic 2 kit)
condition_info: HEK293/CRE-Luc cell line stably expressing the GLP-1 Receptor; 1000 cells/well; 30 min at 37° C.; 0.5 mM IBMX, 0.1% BSA; read-out: GLP1R cAMP Stimulation DR: EC50
readout_name: EC50 (nM)

Check out these entries, answers already filled in.
molecule	target_or_system	EC50 (nM)
CC1(c2ccc(Cl)cc2F)Oc2cccc(C3CCN(Cc4ncc(-c5nnc(C(F)(F)F)[nH]5)cc4CC4CCCS4(=O)=O)CC3)c2O1 (centres unmarked)	GLP-1 Receptor (Homo sapiens)	10
Cc1cc(-c2nnc(C(F)(F)F)[nH]2)cnc1CN1CCC(c2cccc3c2OC(C)(c2ccc(Cl)cc2)O3)CC1 (centres unmarked)	GLP-1 Receptor (Homo sapiens)	4.5

a = COCCn1c(/C=C/C(=O)O)cnc1CN1CCC(c2cccc(OCc3ccc(Cl)cc3F)n2)CC1
b = O=C(O)/C=C/c1cnc(CN2CCC(c3cccc(OCc4ccc(Cl)cc4F)n3)CC2)c(CC2CCCO2)c1 (centres unmarked)
c = Cc1cc(-c2nnc(C(F)F)[nH]2)cnc1CN1CCC(c2cccc3c2OC(C)(c2ccc(Cl)cc2F)O3)CC1 (centres unmarked)
d = CC1(c2ccc(Cl)cc2F)Oc2cccc(C3CCN(Cc4ncc(CCC(=O)O)n4Cc4ccccc4)CC3)c2O1 (centres unmarked)
Arrange the 4 molecules by rising EC50, starting with the smallest. Give the order by naming the labels one after another as requested.
a, d, c, b

a = C/C(=C\c1cnc(CN2CCC(c3cccc4c3O[C@@](C)(c3ccc(Cl)cc3F)O4)CC2)n1C[C@@H]1CCO1)C(=O)O (single isomer, unassigned) [Compound 131a]
b = Cn1cncc1Cn1c(/C=C/C(=O)O)cnc1CN1CCC(c2cccc3c2OC[C@@H](c2ccc(Cl)cc2)O3)CC1 [Compound 206a]
Form: Entry with minimum EC50 (choose one): a / b Refer to your chosen item by its label in the answer.
a
(a: 0.099 nM, b: 0.19 nM)

a = C[C@@H](Cn1c(/C=C/C(=O)O)cnc1CN1CCC(c2cccc3c2O[C@@](C)(c2ccc(Cl)cc2F)O3)CC1)OC(F)F [Compound 169a]
b = Cc1ncc(Cn2c(/C=C/C(=O)O)cnc2CN2CCC(c3cccc4c3OC(C)(c3ccc(Cl)cc3F)O4)CC2)o1 (centres unmarked)
c = CCC(O)Cn1c(/C=C/C(=O)O)cnc1CN1CCC(c2cccc3c2OC(C)(c2ccc(Cl)cc2F)O3)CC1 (centres unmarked)
d = C[C@@H](c1ccccc1)n1c(/C=C/C(=O)O)cnc1CN1CCC(c2cccc3c2OC(C)(c2ccc(Cl)cc2F)O3)CC1 (some centres unmarked)
Arrange the 4 molecules by rising EC50, starting with the smallest. Give the order by naming the labels one after another as requested.
a, b, d, c

====

target_or_system: GLP-1 Receptor (Homo sapiens)
Construct: host or cells: HEK293/GLP1R/CRE-LUC (HEK293/CRE-Luc stably expressing the GLP-1 receptor)
protocol_details: GLP-1R agonist cAMP stimulation assay (HEK293/GLP1R/CRE-LUC cells, Cisbio cAMP dynamic 2 kit)
Format: cell-based
condition_info: HEK293/CRE-Luc cell line stably expressing the GLP-1 Receptor; 1000 cells/well; 30 min at 37° C.; 0.5 mM IBMX, 0.1% BSA; read-out: GLP1R cAMP Stimulation DR: EC50
readout_name: EC50 (pM)

molecule	reported_measurement
C/C(=C\c1nnc(CN2CCC(c3cccc(OCc4ccc(Cl)cc4F)n3)CC2)n1CCS(C)(=O)=O)C(=O)O [Compound 227]	1700
CCc1nocc1Cn1c(/C=C/C(=O)O)cnc1CN1CCC(c2cccc3c2OC(C)(c2ccc(Cl)cc2F)O3)CC1 (stereo not shown) [Compound 203]	58
O=C(O)/C=C/c1cnc(CN2CCC(c3cccc(OCc4ccc(Cl)cc4F)n3)CC2)n1CC1CCC1 [Compound 211]	540

1 = CCn1cncc1Cn1c(/C=C/C(=O)O)cnc1CN1CCC(c2cccc3c2OC[C@@H](c2ccc(Cl)cc2)O3)CC1 [Compound 207a]
2 = CCn1cncc1Cn1c(/C=C/C(=O)O)nnc1CN1CCC(c2cccc3c2OC[C@@H](c2ccc(Cl)cc2)O3)CC1 [Compound 234a]
Form: Entry with minimum EC50 (choose one): 1 / 2 Refer to your chosen item by its label in the answer.
1
(1: 16 pM, 2: 26 pM)
